- protocolText: in vitro
- conditionInfo: female, Holstein Friesian, bovine, Recovery, 200 μm microneedle pretreatment; mean, n = 5–6
experimentalEndpoint: recovery (%)

- CC(C)Cc1ccc(C(C)C(=O)O)cc1 (stereo not drawn): 11.2

P. O=C(O)Cc1ccccc1Nc1c(Cl)cccc1Cl
Q. CC(C(=O)O)c1cccc(C(=O)c2ccccc2)c1 (stereo not drawn)
Quick check, higher recovery between P and Q ? Answer with the label corresponding to your selection.
P
(P: 3.17%, Q: 0.76%)

====

- protocolText: in vitro
- conditionInfo: female, Holstein Friesian, bovine, Recovery, untreated control skin; mean, n = 5–6
experimentalEndpoint: recovery (%)

P. CC(C(=O)O)c1cccc(C(=O)c2ccccc2)c1 (stereo not drawn)
Q. O=C(O)Cc1ccccc1Nc1c(Cl)cccc1Cl
R. CC(C)Cc1ccc(C(C)C(=O)O)cc1 (stereo not drawn)
Quick one: which order do the items above go in by recovery, smallest to largest? Form field (ranking): labels in requested order.
P, Q, R

====

- protocolText: in vitro
- conditionInfo: female, Holstein Friesian, bovine, 10^-6 Papp, untreated control skin; mean, n = 5–6
experimentalEndpoint: Papp at 6 h (×10⁻⁶ cm/s)

P. CC(C(=O)O)c1cccc(C(=O)c2ccccc2)c1 (centres unmarked)
Q. O=C(O)Cc1ccccc1Nc1c(Cl)cccc1Cl
Higher Papp at 6 h between P and Q ? Give the chosen item's label as your response.
Q
